testMethodNotes: in vitro
testSettings: African green monkey
Measured CC50, listed per entry for reference.

{"columns": ["structureSmiles", "CC50"],
 "data": [
  ["COC(=O)C[C@](O)(CCCC(C)(C)O)C(=O)O[C@@H]1C(OC)=C[C@]23CCCN2CCc2cc4c(cc2[C@H]13)OCO4", "5.58 µM"],
  ["O=c1c(O)c(-c2ccc(O)c(O)c2)oc2cc(O)cc(O)c12", "> 1000 µM"]
]}

###

Test system: herpes simplex virus type 1 (HSV-1)
testMethodNotes: microbe, parasite or virus in culture
Assay type: cell-based, herpes simplex virus type 1 (HSV-1) strain F
testSettings: Human alphaherpesvirus 1, Vero, read-out: IC50, half maximal inhibitory concentration

{"columns": ["structureSmiles", "IC50 [nM]"],
 "data": [
  ["COC(=O)C[C@](O)(CCCC(C)(C)O)C(=O)O[C@@H]1C(OC)=C[C@]23CCCN2CCc2cc4c(cc2[C@H]13)OCO4", 139]
]}

###

System: Newcastle disease virus (NDV)
testMethodNotes: microbe, parasite or virus in culture
Assay type: cell-based, Newcastle disease virus (NDV) strain NA-1
testSettings: avian paramyxovirus 1, HeLa, read-out: IC50, half maximal inhibitory concentration
pIC50: −log10 of the molar value.
Reported pIC50 values for a set of compounds

{"columns": ["structureSmiles", "testSystem", "pIC50"],
 "data": [
  ["NC(=O)c1ncn([C@@H]2O[C@H](CO)[C@@H](O)[C@H]2O)n1", "Newcastle disease virus (NDV)", 4.35],
  ["COC(=O)C[C@](O)(CCCC(C)(C)O)C(=O)O[C@@H]1C(OC)=C[C@]23CCCN2CCc2cc4c(cc2[C@H]13)OCO4", "Newcastle disease virus (NDV)", 7.74]
]}
